assay: Binding affinity to LPS by fluorescence-based displacement assay
parameterMeasured: ED50 (µM)

CCCCCCCCCCCCS(=O)(=O)NCCCNCCCCNCCCN 3
CCCCOc1ccc(CC(C)(C)C)cc1S(=O)(=O)NCCCNCCCCNCCCN 4
CCCCCCCCCCCCCCCCCCS(=O)(=O)NCCCNCCCCNCCCN 6
NCCCNCCCCNCCCNS(=O)(=O)c1cc(Cl)c(Cl)cc1Cl 19

1 = CCCCCCCCCCCCCCCCS(=O)(=O)NCCCNCCCCNCCCN
2 = NCCCNCCCCNCCCNS(=O)(=O)c1cccc2cccnc12
Task: Compare ED50: is it lower for 1 or for 2 ? Mark your selection by writing its label.
Result: 1

* * *

assay: Binding affinity to LPS by fluorescence-based displacement assay
parameterMeasured: ED50 (µM)

// below: answered compounds
compound	parameterMeasured	measuredValue
CC1(C)C2CCC1(CS(=O)(=O)NCCCNCCCCNCCCN)C(=O)C2 (stereo not drawn)	ED50	1680
NCCCNCCCCNCCCNS(=O)(=O)c1ccc(Cl)cc1Cl	ED50	56
NCCCNCCCCNCCCNS(=O)(=O)c1ccccc1	ED50	2960
NCCCNCCCCNCCCNS(=O)(=O)c1ccc(Br)cc1Br	ED50	2110
NCCCNCCCCNCCCNS(=O)(=O)c1ccc(Cl)c(C(F)(F)F)c1	ED50	21
CCCCCCCCS(=O)(=O)NCCCNCCCCNCCCN	ED50	5
CC(C)(C)c1ccc(S(=O)(=O)NCCCNCCCCNCCCN)cc1	ED50	25
NCCCNCCCCNCCCNS(=O)(=O)c1ccc(Cl)c(Cl)c1Cl	ED50	9
NCCCNCCCCNCCCNS(=O)(=O)c1ccc(C(F)(F)F)cc1	ED50	884
CCCCCCCCCCS(=O)(=O)NCCCNCCCCNCCCN	ED50	3

A = NCCCNCCCCNCCCNS(=O)(=O)c1cccc2ccccc12
B = NCCCNCCCCNCCCNS(=O)(=O)c1ccc(Cl)cc1
Task: Would you let me know which has the greater ED50 value, A or B ? Mark your selection by writing its label.
Result: B
(B: 158 µM, A: 34 µM)
